- System: Candida albicans
- Protocol notes: Antifungal activity against Candida albicans after 24 hrs
- Format: functional
Collected MIC values appear next to each entry.

Compound: COC1=C(C(=O)O)[C@H](C)[C@@]23O[C@]24c2cc(O)c5c(c2N[C@H]3C#C/C=C\C#C[C@H]14)C(=O)c1c(O)ccc(O)c1C5=O [DYNEMICIN A]
MIC: 0.156 µg/mL

Compound: COc1cccc2c1C(=O)c1ccc3cc(C)cc(O[C@@H]4O[C@H](C(=O)O)[C@@H](O)[C@H](O)[C@H]4O)c3c1C2=O [PSEUDONOCARDONE B]
MIC: > 50 µg/mL

Compound: COc1cccc2c1C(=O)c1ccc3cc(C)cc(O[C@@H]4O[C@H](C(=O)O)[C@@H](O)[C@H](O)[C@H]4O)c3c1C2O (relative stereo)
MIC: > 50 µg/mL

Compound: COc1cccc2c1C(=O)c1ccc3cc(C)cc(O)c3c1C2=O
MIC: > 50 µg/mL

Compound: COc1cccc2c1C(=O)c1ccc3cc(C)c(O[C@@H]4O[C@H](C(=O)O)[C@@H](O)[C@H](O)[C@H]4O)c(O)c3c1C2=O [PSEUDONOCARDONE C]
MIC: > 50 µg/mL

Compound: COc1cccc2c1C(=O)c1ccc3c(c1C2=O)C(=O)C[C@](C)(O)C3
MIC: > 50 µg/mL
